protocol notes: inhibition of 3D7 malaria parasite growth – strain 3D7 (AID 2306);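 further: 0% = DMSO wells and 100% = chloroquine plus artemisinin control wells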
condition parameters: P. falciparum 3D7 erythrocytic growth, LDH absorbance, 72 h; at 2 µM; hits give high values
metric name: growth inhibition (%)
Numbers only, in %.

Some solved cases for reference:
molecule=N#Cc1ccc(-c2ccc(C(=O)NCC3CCN(CCN4CCC(c5ccc6c(c5OCC(N)=O)CCCC6)CC4)CC3)cc2)cc1 metric_name="growth inhibition" unit=% reading=99
molecule="N#Cc1cccc(NC(=O)c2ccc(S(=O)(=O)NCC3CCCN3CC3CCCCC3)cc2)c1 (centres undefined)" metric_name="growth inhibition" unit=% reading=88
molecule="COc1ccc2nccc(NC(=O)C3(O)CCC(NCc4ncc5c(c4Cl)OCCO5)CC3)c2n1 (centres undefined)" metric_name="growth inhibition" unit=% reading=83
molecule="CN(C)c1ccc(-c2csc(C(=O)NC3CCCCN(Cc4ccc(C(C)(C)C)cc4)C3)c2)cc1 (centres undefined)" metric_name="growth inhibition" unit=% reading=84
molecule=COc1ccccc1N1CCN(Cc2c(O)ccc3cc(Br)ccc23)CC1 metric_name="growth inhibition" unit=% reading=89
molecule=Cc1nc2c(s1)c(=O)cc(CCc1cccc(F)c1F)n2CC(=O)N(Cc1ccc(-c2ccc(C(F)(F)F)cc2)cc1)C1CCN(C(C)C)CC1 metric_name="growth inhibition" unit=% reading=100
molecule=Cc1cccc(NC(=O)Nc2ccc(I)c(OCCN(C)C)c2)c1C metric_name="growth inhibition" unit=% reading=96
molecule=COc1cc(-c2cc(-c3ccc(S(C)(=O)=O)cc3)cnc2N)ccc1O metric_name="growth inhibition" unit=% reading=97

# return growth inhibition for each item in the list
1. COc1ccc(C(c2ccc(N(C)C)cc2)c2ccc(N(C)C)cc2)cc1
2. O=C(NC1CCN(Cc2ccccc2)CC1)c1cc(-c2ccncc2)nc2ccc(Cl)cc12
3. CCOc1ccc2c(NN=Cc3ccccc3F)cc(C)nc2c1
4. CCCCCN1CCC(NS(=O)(=O)c2cccc(C(=O)Nc3ccc(Cl)cc3)c2)CC1
5. COc1cc(C(=O)N2N=C(c3c(-c4ccccc4)c4cc(Br)ccc4[nH]c3=O)CC2c2cccc([N+](=O)[O-])c2)cc(OC)c1OC (centres undefined)
6. CSc1cccc(NC(=O)c2cc3ccccc3oc2=O)c1

OUT:
1. 101
2. 97
3. 101
4. 88
5. 93
6. 92
